# System: ANGPTL3 gene
# Test protocol: Example 7: serum HDL in mice
# Type: in vivo
# Set-up: key: ratio: (level/pre-treatment day -1 level) ÷ mean of D5W control group
# Settings: Day 8; 0.5 mg/kg single SC injection day 1; female C57bl/6 mice, n=3; ratio to D5W control
In the oligonucleotide strings, read from the 5' end, every base follows the letter of its sugar. An asterisk marks phosphorothioate; unmarked linkages are phosphodiester. Other units and linkages are bracketed, terminal groups are in braces. A string of capitals states the bases alone. {NAG37} = tridentate N-acetyl-galactosamine targeting ligand, structure (NAG37)s; [invAb] = inverted abasic unit; m = 2'-O-methyl; f = 2'-fluoro
Known Avg HDL, normalized to pre-treatment and control of a selection of substances
Assay metric: Avg HDL, normalized to pre-treatment and control

Substance	Tested on	Assay value
AD05308: RNAi agent duplex: antisense AM07003-AS, sense AM07002-SS (chain 1 mU*fG*mU*fUmGfAmAfUmUfAmAfUmGfUmCfCmAfUmGfG*mA; chain 2 {NAG37}*[invAb]*mUmCmCmAmUmGmGmAfCfAfUmUmAmAmUmUmCmAmAmCmA*[invAb])	ANGPTL3 gene	0.750
AD05777: RNAi agent duplex: antisense AM07235-AS, sense AM07610-SS (antisense UACUGAUCAAAUAUGUUGAGC; sense GCUCAACNUNUUUGAUCAGUA; (NAG37)s GalNAc ligand; RNAi agent antisense strand modified sequence; RNAi agent sense strand modified sequence; modified_base 8, 10 n = 2′-O-methyl-2-aminoadenosine-3′-phosphate)	ANGPTL3 gene	0.784
AD05418: RNAi agent duplex: antisense AM07159-AS, sense AM07158-SS (antisense mU*fU*mU*fGmAfAmUfUmAfAmUfGmUfCmCfAmUfGmGfG*mU; sense {NAG37}*[invAb]*mAmCmCmCmAmUmGmGfAfCfAmUmUmAmAmUmUmCmAmAmA*[invAb])	ANGPTL3 gene	0.907
AD05775: RNAi agent duplex: antisense AM07235-AS, sense AM07608-SS (antisense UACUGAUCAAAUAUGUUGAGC; sense GCUCAACAUNUUUGAUCAGUA; (NAG37)s GalNAc ligand; RNAi agent antisense strand modified sequence; RNAi agent sense strand modified sequence; modified_base 10 n = 2′-O-methyl-2-aminoadenosine-3′-phosphate)	ANGPTL3 gene	0.754
AD05488: RNAi agent duplex: antisense AM07235-AS, sense AM07234-SS (antisense mU*fA*mC*fUmGfAmUfCmAfAmAfUmAfUmGfUmUfGmAfG*mC; sense {NAG37}*[invAb]*mGmCmUmCmAmAmCmAfUfAfUmUmUmGmAmUmCmAmGmUmA*[invAb])	ANGPTL3 gene	0.783

---

Known Avg LDL, normalized to pre-treatment and control of a selection of substances
# Test system: ANGPTL3 gene
# Test protocol: Example 7: serum LDL in mice
# Assay type: in vivo
# Parameters: key: ratio: (level/pre-treatment day -1 level) ÷ mean of D5W control group
# Settings: Day 29; 0.5 mg/kg single SC injection day 1; female C57bl/6 mice, n=3; ratio to D5W control
In the oligonucleotide strings, read from the 5' end, every base follows the letter of its sugar. An asterisk marks phosphorothioate; unmarked linkages are phosphodiester. Other units and linkages are bracketed, terminal groups are in braces. A string of capitals states the bases alone. {NAG37} = tridentate N-acetyl-galactosamine targeting ligand, structure (NAG37)s; [invAb] = inverted abasic unit; m = 2'-O-methyl; f = 2'-fluoro
Assay metric: Avg LDL, normalized to pre-treatment and control

Substance	Assay value
AD05418: RNAi agent duplex: antisense AM07159-AS, sense AM07158-SS (antisense mU*fU*mU*fGmAfAmUfUmAfAmUfGmUfCmCfAmUfGmGfG*mU; sense {NAG37}*[invAb]*mAmCmCmCmAmUmGmGfAfCfAmUmUmAmAmUmUmCmAmAmA*[invAb])	1.131
AD05308: RNAi agent duplex: antisense AM07003-AS, sense AM07002-SS (chain 1 mU*fG*mU*fUmGfAmAfUmUfAmAfUmGfUmCfCmAfUmGfG*mA; chain 2 {NAG37}*[invAb]*mUmCmCmAmUmGmGmAfCfAfUmUmAmAmUmUmCmAmAmCmA*[invAb])	1.047
AD05777: RNAi agent duplex: antisense AM07235-AS, sense AM07610-SS (antisense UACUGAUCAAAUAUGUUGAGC; sense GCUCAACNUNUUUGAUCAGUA; (NAG37)s GalNAc ligand; RNAi agent antisense strand modified sequence; RNAi agent sense strand modified sequence; modified_base 8, 10 n = 2′-O-methyl-2-aminoadenosine-3′-phosphate)	1.224
AD05775: RNAi agent duplex: antisense AM07235-AS, sense AM07608-SS (antisense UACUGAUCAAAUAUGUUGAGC; sense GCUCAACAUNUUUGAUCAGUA; (NAG37)s GalNAc ligand; RNAi agent antisense strand modified sequence; RNAi agent sense strand modified sequence; modified_base 10 n = 2′-O-methyl-2-aminoadenosine-3′-phosphate)	1.534

---

Known Avg HDL, normalized to pre-treatment and control of a selection of substances
# Test system: ANGPTL3 gene
# Test protocol: Example 4: serum HDL in mice
# Format: in vivo, C57bl/6 mice
# Settings: Day 22, 1.0 mg/kg single SC injection on day 1, n=3
In the oligonucleotide strings, read from the 5' end, every base follows the letter of its sugar. An asterisk marks phosphorothioate; unmarked linkages are phosphodiester. Other units and linkages are bracketed, terminal groups are in braces. A string of capitals states the bases alone. {NAG37} = tridentate N-acetyl-galactosamine targeting ligand, structure (NAG37)s; [invAb] = inverted abasic unit; m = 2'-O-methyl; f = 2'-fluoro
Assay metric: Avg HDL, normalized to pre-treatment and control

Substance	Assay value
AD05487: RNAi agent duplex: antisense AM07233-AS, sense AM07232-SS (antisense mU*fA*mC*fUmGfAmUfCmAfAmAfUmAfUmGfUmUfGmAfG*mU; sense {NAG37}*[invAb]*mAmCmUmCmAmAmCmAfUfAfUmUmUmGmAmUmCmAmGmUmA*[invAb])	0.658
AD05488: RNAi agent duplex: antisense AM07235-AS, sense AM07234-SS (antisense mU*fA*mC*fUmGfAmUfCmAfAmAfUmAfUmGfUmUfGmAfG*mC; sense {NAG37}*[invAb]*mGmCmUmCmAmAmCmAfUfAfUmUmUmGmAmUmCmAmGmUmA*[invAb])	0.727
AD05308: RNAi agent duplex: antisense AM07003-AS, sense AM07002-SS (chain 1 mU*fG*mU*fUmGfAmAfUmUfAmAfUmGfUmCfCmAfUmGfG*mA; chain 2 {NAG37}*[invAb]*mUmCmCmAmUmGmGmAfCfAfUmUmAmAmUmUmCmAmAmCmA*[invAb])	0.728
AD05418: RNAi agent duplex: antisense AM07159-AS, sense AM07158-SS (antisense mU*fU*mU*fGmAfAmUfUmAfAmUfGmUfCmCfAmUfGmGfG*mU; sense {NAG37}*[invAb]*mAmCmCmCmAmUmGmGfAfCfAmUmUmAmAmUmUmCmAmAmA*[invAb])	0.846

---

# Tested on: ANGPTL3 protein
# Test protocol: Example 4: serum ANGPTL3 protein by ELISA in mice
# Type: in vivo, C57bl/6 mice
# Settings: Day 43; 1.0 mg/kg single subcutaneous dose on day 1; serum; female C57bl/6 mice
In the oligonucleotide strings, read from the 5' end, every base follows the letter of its sugar. An asterisk marks phosphorothioate; unmarked linkages are phosphodiester. Other units and linkages are bracketed, terminal groups are in braces. A string of capitals states the bases alone. {NAG37} = tridentate N-acetyl-galactosamine targeting ligand, structure (NAG37)s; [invAb] = inverted abasic unit; m = 2'-O-methyl; f = 2'-fluoro
Assay metric: Avg ANGPTL3 (Average ANGPTL3 Protein Normalized to Pre-Treatment and Control)

Substance	Assay value
AD05418: RNAi agent duplex: antisense AM07159-AS, sense AM07158-SS (antisense mU*fU*mU*fGmAfAmUfUmAfAmUfGmUfCmCfAmUfGmGfG*mU; sense {NAG37}*[invAb]*mAmCmCmCmAmUmGmGfAfCfAmUmUmAmAmUmUmCmAmAmA*[invAb])	0.847
AD05488: RNAi agent duplex: antisense AM07235-AS, sense AM07234-SS (antisense mU*fA*mC*fUmGfAmUfCmAfAmAfUmAfUmGfUmUfGmAfG*mC; sense {NAG37}*[invAb]*mGmCmUmCmAmAmCmAfUfAfUmUmUmGmAmUmCmAmGmUmA*[invAb])	0.254
AD05487: RNAi agent duplex: antisense AM07233-AS, sense AM07232-SS (antisense mU*fA*mC*fUmGfAmUfCmAfAmAfUmAfUmGfUmUfGmAfG*mU; sense {NAG37}*[invAb]*mAmCmUmCmAmAmCmAfUfAfUmUmUmGmAmUmCmAmGmUmA*[invAb])	0.477
AD05308: RNAi agent duplex: antisense AM07003-AS, sense AM07002-SS (chain 1 mU*fG*mU*fUmGfAmAfUmUfAmAfUmGfUmCfCmAfUmGfG*mA; chain 2 {NAG37}*[invAb]*mUmCmCmAmUmGmGmAfCfAfUmUmAmAmUmUmCmAmAmCmA*[invAb])	0.643

This collection of values is drawn from patent US12729377B2.
